- assay.comment: in vitro
- Assay type: cell-based
- test.parameters: Chinese hamster
Measured viability at 48 h, 0.01 μM values are reported for all entries that follow.
quantity: viability at 48 h, 0.01 μM

compound | assay.result
NCCCCNCCCCNCCCCNCc1cccc(CNCCCCNCCCCNCCCCN)c1 [Compound 34b] | ~90%
NCCCCNCCCCNCc1cccc(CNCCCCNCCCCN)c1 [Compound 34a] | ~90%
